Cited source for all entries: the PETadex activity labels (doi:10.1021/acscatal.9b00568)

- Substrate: PET
- test_summary: Proxy for plastic degradation [HPLC-UV]
- measurement_setup: pH 9; 30 °C; 72 h
quantity_name: Proxy for plastic degradation

[[record]]
protein = "unnamed (protein) MNFPRASRLMQAAVLGGLMAVSAAATAQTNPYARGPNPTAASLEASAGPFTVRSFTVSRPSGYGAGTVYYPTNAGGTVGAIAIVPGYTARQSSIKWWGPRLASHGFVVITIDTNSTLDQPSSRSSQQMAALRQVASLNGTSSSPIYGKVDTARMGVMGWSMGGGGSLISAANNPSLKAAAPQAPWVSSTNFSSVTVPTLIFACENDSIAPVNSSALPIYDSMSRNAKQFLEINGGSHSCANSGNSNQALIGKKGVAWMKRFMDNDTRYSTFACENPNSTRVSDFRTANCS"
test_result = "4 µM"


Turning to the following protein.
**Q:** What does the record list as Proxy for plastic degradation for unnamed (protein) MNFPRASRLMQAAVLGGLMAVSAAATAQTNPYARGPNPTAASLEASAGPFTVRSFTVSRPSGYGAGTVYYPTNAGGTVGAIAIVPGYTARQSSIKWWGPRLASHGFVVITIDTNSTLDQPESRSSQQMAALRQVASLNGTSSSPIYGKVDTARMGVMGWSMGGGGSLISAANNPSLKAAAPQAPWHSSTNFSSVTVPTLIFACENDSIAPVNSSALPIYDSMSRNAKQFLEINGGSHSCANSGNSNQALIGKKGVAWMKRFMDNDTRYSTFACENPNSTRVSDFRTANCS ?
**A:** 30.5 µM
